B1: tRNA (parent)
chain: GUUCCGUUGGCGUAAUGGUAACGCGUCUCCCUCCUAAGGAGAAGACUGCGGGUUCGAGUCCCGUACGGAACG

Variants of: B1
Assay: yeast fitness, log relative to wild type (ln ratio); higher = fitter; tRNA-Arg(CCU), competitive growth, 37 C, 1 M NaCl
valueType: yeast fitness (ln)
// no unit, no text: just the number

The reported value for U2G G6U C27U A43C C66A in terms of yeast fitness (ln) is -0.0341

The reported value for G6U A43C C66U A69G C71U in terms of yeast fitness (ln) is -0.394

The reported value for U2C G6U C46U A70G in terms of yeast fitness (ln) is -0.0195

The reported value for G1A G6U C27U A43C C46U A69G A70U in terms of yeast fitness (ln) is -0.347

The reported value for U2G G6A C27U C46U C66A A70G in terms of yeast fitness (ln) is -0.16

The reported value for U2G G6U C27U A43C C66U A70G C71U in terms of yeast fitness (ln) is -0.316

The reported value for G1A G6U C27U in terms of yeast fitness (ln) is -0.16

The reported value for U2G G6A A43C C46U C66A A70U C71U in terms of yeast fitness (ln) is -0.227

The reported value for C27U C46U A69G C71U in terms of yeast fitness (ln) is -0.0597

The reported value for G1A U2G G6U C27U A70U in terms of yeast fitness (ln) is -0.265

The reported value for U2G G6U C27U C46U C66U A70G C71U in terms of yeast fitness (ln) is -0.261

The reported value for G6A A43C C66U A69G A70U C71U in terms of yeast fitness (ln) is -0.295

The reported value for C27U A43C C46U C66A A69G A70G in terms of yeast fitness (ln) is -0.0756

The reported value for G1A G6A C27U C46U C66U A70U C71U in terms of yeast fitness (ln) is -0.478

The reported value for U2G G6U C27U C66A A69G A70G C71U in terms of yeast fitness (ln) is -0.25

The reported value for G6U A43C C66U C71U in terms of yeast fitness (ln) is -0.422

The reported value for U2G A43C C46U C66A C71U in terms of yeast fitness (ln) is -0.148

The reported value for C27U C46U C66A A70G C71U in terms of yeast fitness (ln) is -0.129

The reported value for U2C G6A C27U A70G in terms of yeast fitness (ln) is -0.167

The reported value for G6A C27U A43C C46U C66A A69G A70G C71U in terms of yeast fitness (ln) is -0.292

The reported value for A43C C66U A69G A70U C71U in terms of yeast fitness (ln) is -0.365

The reported value for G1A C66U A69G C71U in terms of yeast fitness (ln) is -0.515

The reported value for U2G C46U C66A A70G in terms of yeast fitness (ln) is -0.0687

The reported value for U2C A43C C66U A69G A70U C71U in terms of yeast fitness (ln) is -0.605

The reported value for U2G G6U C46U A69G in terms of yeast fitness (ln) is -0.157

The reported value for A43C C46U C66U A69G A70G C71U in terms of yeast fitness (ln) is -0.158

The reported value for G6A C27U A43C C46U A70G in terms of yeast fitness (ln) is -0.128

The reported value for G1A C46U C66A A70U in terms of yeast fitness (ln) is -0.0792

The reported value for G1A G6U C27U C46U A70G in terms of yeast fitness (ln) is -0.191

The reported value for U2C G6A C27U A43C A69G C71U in terms of yeast fitness (ln) is -0.29

The reported value for G1A U2G G6A C27U A43C C66U A70G in terms of yeast fitness (ln) is -0.337

The reported value for G1A C46U A70U C71U in terms of yeast fitness (ln) is -0.0276

The reported value for G6U C27U A43C C46U C71U in terms of yeast fitness (ln) is -0.254

The reported value for A70U C71U in terms of yeast fitness (ln) is -0.0899

The reported value for G6U C46U C66A C71U in terms of yeast fitness (ln) is -0.00198

The reported value for G1A U2G G6U C66A A70U C71U in terms of yeast fitness (ln) is -0.0122

The reported value for G6A C27U A43C C66A A69G A70G C71U in terms of yeast fitness (ln) is -0.262

The reported value for U2G G6A C27U A43C C46U C66A in terms of yeast fitness (ln) is -0.189
